src = ChEMBL document CHEMBL4229455

Answer each item with its documented pIC50.
# SYSTEM_UNDER_TEST: UniProt:Q63470
# MEASUREMENT_DESCRIPTION: Inhibition of recombinant rat DYRK1A kinase domain expressed in bacteria using KKISGRLSPIMTEQ as substrate in presence of [gamma-33P]ATP
pIC50: −log10 of the molar value.

CC(C)n1cc(C2=C(c3c[nH]c4ccccc34)C(=O)N(O)C2=O)c2ccccc21    < 5.00
CCn1cc(C2=C(c3cn(C)c4ccccc34)C(=O)N(O)C2=O)c2ccccc21    < 5.00

Proceed to the following item.
Reported pIC50 for Cn1cc(C2=C(c3cn(C)c4ncccc34)C(=O)NC2=O)c2ccccc21 : what is it?
< 5.00

* * *

# SYSTEM_UNDER_TEST: Dual specificity tyrosine-phosphorylation-regulated kinase 1A (Rattus norvegicus) (UniProt Q63470)
# MEASUREMENT_DESCRIPTION: Inhibition of recombinant rat DYRK1A kinase domain expressed in bacteria assessed as residual activity at 10 uM using KKISGRLSPIMTEQ as substrate in presence of [gamma-33P]ATP
We label by threshold. Values of Activity strictly beneath 20% are fulfilled. Values of 20% and up are not fulfilled.

Would you please look over these solved cases?
Cn1cc(C2=C(c3c[nH]c4ccccc34)C(=O)N(O)C2=O)c2ccccc21    not fulfilled
N#CCCCCCn1cc(C2=C(c3cn(CCCCCC#N)c4ccccc34)C(=O)N(O)C2=O)c2ccccc21    not fulfilled
O=C1C(c2c[nH]c3ccccc23)=C(c2c[nH]c3ncccc23)C(=O)N1O    not fulfilled
N#CCCCCCn1cc(C2=C(c3cn(CCCCCC#N)c4ccccc34)C(=O)NC2=O)c2ccccc21    fulfilled

Here is the next item to consider.
Input Cn1cc(C2=C(c3cn(CCCCCC(=O)O)c4ccccc34)C(=O)N(O)C2=O)c2ccccc21 ; condition: Activity strictly below 20%. Does it hold?
not fulfilled

* * *

# Tested on: PC-3
# MEASUREMENT_DESCRIPTION: Cytotoxicity against human PC3 cells assessed as cell growth at 10 uM after 48 hrs by SRB assay relative to control
# Type: functional
# CONDITION: PC-3, 48 h, read-out: Activity
QUANTITY_NAME: growth at 10 µM

N#CCCCCCn1cc(C2=C(c3cn(CCCCCC#N)c4ccccc34)C(=O)N(O)C2=O)c2ccccc21    29 to 70.3%
Cn1cc(C2=C(c3cn(C)c4ncccc34)C(=O)NC2=O)c2ccccc21    23 to 44.6%

Proceed to the following item.
Reported growth at 10 µM for CC(C)n1cc(C2=C(c3cn(C)c4ccccc34)C(=O)N(O)C2=O)c2ccccc21 : what is it?
88.4%

* * *

# SYSTEM_UNDER_TEST: CDK9/cyclin T1 (Homo sapiens)
# Sequence (O60563 whole entry): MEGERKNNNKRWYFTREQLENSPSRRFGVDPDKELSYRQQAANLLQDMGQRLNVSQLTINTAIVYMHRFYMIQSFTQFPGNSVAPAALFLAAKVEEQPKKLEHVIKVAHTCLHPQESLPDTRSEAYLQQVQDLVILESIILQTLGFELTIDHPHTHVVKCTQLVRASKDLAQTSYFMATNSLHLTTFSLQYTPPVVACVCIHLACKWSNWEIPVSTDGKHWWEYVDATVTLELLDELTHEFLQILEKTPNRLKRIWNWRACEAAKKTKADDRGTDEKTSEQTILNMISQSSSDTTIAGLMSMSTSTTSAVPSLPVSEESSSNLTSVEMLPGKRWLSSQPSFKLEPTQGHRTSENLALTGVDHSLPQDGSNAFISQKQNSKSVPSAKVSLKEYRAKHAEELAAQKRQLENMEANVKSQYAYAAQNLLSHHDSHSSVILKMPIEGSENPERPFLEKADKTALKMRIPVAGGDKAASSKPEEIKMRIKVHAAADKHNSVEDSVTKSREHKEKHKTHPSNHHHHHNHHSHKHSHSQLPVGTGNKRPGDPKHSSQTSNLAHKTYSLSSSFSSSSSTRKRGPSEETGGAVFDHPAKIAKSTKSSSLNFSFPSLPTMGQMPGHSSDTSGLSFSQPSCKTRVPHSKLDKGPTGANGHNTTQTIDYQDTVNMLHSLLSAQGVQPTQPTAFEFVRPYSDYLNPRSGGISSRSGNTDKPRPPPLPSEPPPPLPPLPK
# Sequence (P50750 whole entry): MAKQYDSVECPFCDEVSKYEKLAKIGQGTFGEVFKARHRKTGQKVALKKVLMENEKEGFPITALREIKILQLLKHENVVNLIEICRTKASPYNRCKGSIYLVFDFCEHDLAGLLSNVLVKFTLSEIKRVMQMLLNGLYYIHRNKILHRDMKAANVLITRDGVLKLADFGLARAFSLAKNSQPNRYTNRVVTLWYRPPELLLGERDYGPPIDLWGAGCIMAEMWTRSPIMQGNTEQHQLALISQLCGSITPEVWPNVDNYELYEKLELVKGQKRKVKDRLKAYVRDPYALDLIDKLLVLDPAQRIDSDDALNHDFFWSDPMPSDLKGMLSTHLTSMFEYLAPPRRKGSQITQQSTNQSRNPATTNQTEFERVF
# MEASUREMENT_DESCRIPTION: Inhibition of recombinant full length human CDK9/cyclin T expressed in baculovirus infected Sf9 insect cells using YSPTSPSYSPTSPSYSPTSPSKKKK as substrate in presence of [gamma-33P]ATP
QUANTITY_NAME: IC50

O=C1C2=C(C(=O)N1O)c1cn(c3ccccc13)CCCCCCn1cc2c2ccccc21    > 10 µM
O=C1C(c2c[nH]c3ccccc23)=C(c2c[nH]c3ncccc23)C(=O)N1O    > 10 µM

Proceed to the following item.
Reported IC50 for CC(C)n1cc(C2=C(c3c[nH]c4ccccc34)C(=O)N(O)C2=O)c2ccccc21 : what is it?
> 10 µM
